# Method notes: self-splicing fitness, log relative to wild type (ln ratio); higher = more splicing; Tetrahymena group I intron in knt gene, E. coli kanamycin selection, DiMSum; sequences stand for … in CUCUCU…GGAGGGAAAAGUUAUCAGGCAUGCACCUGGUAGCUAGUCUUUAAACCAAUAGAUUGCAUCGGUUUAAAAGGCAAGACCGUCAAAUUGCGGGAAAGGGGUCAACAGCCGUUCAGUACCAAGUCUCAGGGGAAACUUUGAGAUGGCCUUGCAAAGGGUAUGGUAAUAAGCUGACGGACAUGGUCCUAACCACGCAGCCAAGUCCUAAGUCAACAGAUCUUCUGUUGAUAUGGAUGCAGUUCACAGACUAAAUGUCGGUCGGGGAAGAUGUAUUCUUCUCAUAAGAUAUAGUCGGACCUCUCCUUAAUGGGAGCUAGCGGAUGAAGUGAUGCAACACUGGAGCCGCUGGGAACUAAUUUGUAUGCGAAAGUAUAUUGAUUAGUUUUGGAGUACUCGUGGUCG;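 further: selection with 25 µg/mL kanamycin versus none on LB agar overnight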
# Condition set: 30 °C
true means recorded self-splicing fitness (ln) is -2 or above; false means it is below -2.

1) GUGCAGCAAUAUUACGCUGA ... false
2) CUCUAGCAAUAUUACGUUCA ... false
3) GAAUAGCAAUAUUACGAGCC ... true
4) UUUUAGCAAUAUUACGAAUA ... true
5) UGGUAGCAAUAUUACGCGUU ... false
6) AUAAAGCAAUAUUACGCCAC ... true
7) AUUUAGCAAUAUUACGUCAA ... false
8) AGGAAGCAAUAUUACGGGGU ... false
9) UGGCAGCAAUAUUACGCUGG ... false
10) AAUCAGCAAUAUUACGAUGA ... true
11) UUUAAGCAAUAUUACGUUGU ... false
12) GGAUAGCAAUAUUACGUUAA ... false
13) GUCGAGCAAUAUUACGCCUU ... true
14) GCGCAGCAAUAUUACGAUUA ... true
15) AACCAGCAAUAUUACGGGGU ... false
16) GGGAAGCAAUAUUACGCUUG ... true
17) AGGAAGCAAUAUUACGUUCG ... true
18) UUUCAGCAAUAUUACGCUCG ... true
19) CGACAGCAAUAUUACGCACU ... true
20) CCUCAGCAAUAUUACGUGUC ... false
21) UCUCAGCAAUAUUACGGCGG ... false
22) CCGAAGCAAUAUUACGUCUA ... false
23) AAGAAGCAAUAUUACGAUCG ... true
24) CGUCAGCAAUAUUACGUGCC ... true
25) GAAUAGCAAUAUUACGCAAC ... false
26) GUCAAGCAAUAUUACGCAAC ... false
27) UUGAAGCAAUAUUACGACGU ... true
28) AUACAGCAAUAUUACGGUCG ... true
29) AACUAGCAAUAUUACGGGGA ... true
30) CCCUAGCAAUAUUACGGCGG ... false
31) CAACAGCAAUAUUACGCUAA ... false
32) ACCCAGCAAUAUUACGGACC ... true
33) GCGAAGCAAUAUUACGAGUA ... false
34) GCUGAGCAAUAUUACGAAGA ... false
35) GACAAGCAAUAUUACGCAGA ... false
36) GUGAAGCAAUAUUACGAAGA ... true
37) AAGUAGCAAUAUUACGAACU ... true
38) GAUAAGCAAUAUUACGCUAA ... false
39) UCACAGCAAUAUUACGACCU ... false
40) AAGAAGCAAUAUUACGUGUC ... false
41) AUACAGCAAUAUUACGGUCC ... true
42) CUGUAGCAAUAUUACGGAUC ... false
43) AAUAAGCAAUAUUACGCAUA ... true
44) UAAUAGCAAUAUUACGUUGC ... false
45) CUGAAGCAAUAUUACGACUC ... true
46) GUGGAGCAAUAUUACGUAGG ... false
47) CAAAAGCAAUAUUACGGGCC ... false
48) CAUAAGCAAUAUUACGAGUG ... false
49) UUAGAGCAAUAUUACGGCGA ... true
50) UACAAGCAAUAUUACGGAAU ... false
51) AAGAAGCAAUAUUACGUAUC ... false
52) UGCAAGCAAUAUUACGAAAU ... false
53) UCCAAGCAAUAUUACGAGAG ... false
54) CUUGAGCAAUAUUACGAUCG ... true
55) UUCGAGCAAUAUUACGCGGG ... false
56) AUUCAGCAAUAUUACGCCGU ... true
57) AGCUAGCAAUAUUACGCCUG ... true
58) CGUGAGCAAUAUUACGAACA ... true
59) UUGUAGCAAUAUUACGACGU ... true
60) CGCUAGCAAUAUUACGGUAA ... true
61) AUAGAGCAAUAUUACGGCGU ... true
62) ACUCAGCAAUAUUACGUGAG ... true
63) CUUUAGCAAUAUUACGCAUU ... false
64) AGGUAGCAAUAUUACGCCAC ... false
